pIC50 values, listed per item
- System: TMD8 cells
- TEST_NAME: 4-day proliferation assay, TMD8
- Assay type: cell-based
- TEST_SETTINGS: Homo sapiens, 96 h, 4 days incubation, CellTiterGLO, read-out: Anti-proliferation: TMD-8 IC50
// pIC50: -log10(molar conc.)

# count of solved cases: 3
>>> test_value("Nc1cnn(-c2ncc(NC(=O)c3cnn(-c4cccc5ncccc45)c3C(F)(F)F)cc2Cl)n1 [Cpd 154]")
5.65
>>> test_value("O=C(Nc1cnc(-c2ncco2)c(Cl)c1)c1cnn(-c2cccc3ccncc23)c1C(F)(F)F [Cpd 22]")
4.77
>>> test_value("CC(O)c1ncc(-n2ncc(C(=O)Nc3cnc(-n4nccn4)c(Cl)c3)c2C(F)(F)F)c2ccsc12 (centres unmarked) [Cpd 376]")
5.84

// moving on: another record for pIC50
# lookup: pIC50 of Cc1nc(-n2nccn2)c(C#N)cc1NC(=O)c1cnn(-c2cnc(N)c3ccccc23)c1C(F)(F)F [Cpd 338]
5.84

Values compiled from patent US10954214B2.
